system: CCRF-CEM leukemia; assay: NCI-60 one-dose screen, 48 h; settings: 10 µM
This is part of a sample that, as a whole, favours compounds with a hit. Of some 83,000 tested, about 20% had one in any assay. Activity calls are given as the source filed them. The calls were made as follows: active = growth percent below 10; inactive = the rest.
One label from this list, please: TRUE for active, FALSE for inactive

The following molecules have reported results that may help.
{"molecule": "COc1ccc(N=Nc2cc(OC)c(OC)c(OC)c2)cc1", "class": "FALSE"}
{"molecule": "CCOC(=O)c1cc(C(=O)c2cc(OC)cc(OC)c2)n2nc(C)ccc12", "class": "FALSE"}
{"molecule": "O=C1c2ccccc2C(=O)c2c1ccc(C(Br)Br)c2Cl", "class": "TRUE"}
{"molecule": "COc1cc(-c2nn(-c3cccc(NC(=O)NCCNS(=O)(=O)c4ccc(Cl)cc4)c3)cc2-c2ccncc2)ccc1Cl", "class": "TRUE"}
{"molecule": "O=c1c(Br)ccc(Br)cc1Br", "class": "TRUE"}
{"molecule": "CC(C)(C)c1nn(-c2ccccc2)c2c1CC1(CN2Cc2ccc(Cl)cc2)C(=O)c2ccccc2C1=O", "class": "FALSE"}

QUERY: Record lookup: outcome of this test for OC(CNc1ccnc2cc(Cl)ccc12)CNC1CCCCC1 (stereo not drawn) ?
RESULT: FALSE

QUERY: Record lookup: outcome of this test for Cc1cc(NC(=O)c2ccc(C)c(Nc3nccc(-c4cccnc4)n3)c2)cc(-n2cnc(C)c2)c1 ?
RESULT: FALSE

QUERY: Record lookup: outcome of this test for COc1ccc(/C=C2/SC(=S)NC2=O)c(OC)c1OC ?
RESULT: FALSE

QUERY: Record lookup: outcome of this test for COc1ccc(/C=C2\CCCC3=C2NC(N)=NC3c2ccc(OC)cc2)cc1 (stereo not drawn) ?
RESULT: FALSE

QUERY: Record lookup: outcome of this test for CCc1c2c(nc3ccc(OC(=O)N4CCC(N5CCCCC5)CC4)cc13)-c1cc3c(c(=O)n1C2)COC(=O)[C@]3(O)CC ?
RESULT: TRUE

QUERY: Record lookup: outcome of this test for Nc1nc(Cl)nc2c1ncn2C1O[C@H](CO)[C@@H](O)[C@@H]1F (stereo partly drawn) ?
RESULT: TRUE

QUERY: Record lookup: outcome of this test for COc1cc2cc(Oc3ccc(NC(=O)Nc4ccc(Cl)c(Cl)c4)cc3)c(C)nc2cc1OC ?
RESULT: FALSE

* * *

tested on: K-562 leukemia; experiment: NCI-60 one-dose screen, 48 h (100 = growth as untreated, 0 = no growth, -100 = all killed); details: 10 µM
The panel holds about 83,000 compounds, 20% with a hit somewhere; the sample as a whole holds those more often.
parameter: growth (%)
Please respond with the number in % and leave the unit unwritten.

Some solved entries appear below for comparison.
{"compound": "COc1ccccc1-n1c(-c2csc(NC(C)=O)n2)n[nH]c1=S", "target.system": "K-562 leukemia", "val": 87.5}
{"compound": "C=CCNCCN1C(=O)c2ccc3c4c(ccc(c24)C1=O)C(=O)N(CCNCC=C)C3=O", "target.system": "K-562 leukemia", "val": 1.43}
{"compound": "C1CN(CC2CCC(CN3CCOCC3)O2)CCO1 (stereo unspecified)", "target.system": "K-562 leukemia", "val": 63.1}

QUERY: Answer with the recorded growth of Cc1ccc2nc(Cl)c(-c3nc4ccccc4o3)cc2c1 only.
RESULT: 80.7

QUERY: Answer with the recorded growth of CC[C@@H]1NC(=O)[C@H]([C@H](O)[C@H](C)C/C=C/c2ccc(CN3C(=O)CCCC3=O)cc2)N(C)C(=O)[C@H](C(C)C)N(C)C(=O)[C@H](CC(C)C)N(C)C(=O)[C@H](CC(C)C)N(C)C(=O)[C@@H](C)NC(=O)[C@H](C)NC(=O)[C@H](CC(C)C)N(C)C(=O)[C@H](C(C)C)NC(=O)[C@H](CC(C)C)N(C)C(=O)CN(C)C1=O only.
RESULT: 39.6

QUERY: Answer with the recorded growth of Nc1ccccc1NC(=O)c1ccc(CCCC(=O)Nc2ccc(C3CC3N)cc2)cc1 (stereo unspecified) only.
RESULT: 25.4

QUERY: Answer with the recorded growth of CS(=O)(=O)c1nccc(-c2c(-c3cccc(OCc4ccc(F)cc4)c3)nc3sccn23)n1 only.
RESULT: 47.3

QUERY: Answer with the recorded growth of O=C(N/N=C/c1ccc([N+](=O)[O-])cc1)c1ccccc1Nc1cccc(C(F)(F)F)c1 only.
RESULT: 107

QUERY: Answer with the recorded growth of COc1cc2c(Nc3ccc(-c4ccc(N)cc4)cc3)ncnc2c(OC)c1OC only.
RESULT: 11

Numbers sourced from PubChem BioAssay (NCI).
